Tested on: HL-60(TB) leukemia
assay_details: NCI tumour cell line growth inhibition, 48 h
Would you kindly list TGI for each of these molecules?

Data request: Consider the molecule shown here: N.N.N.N.O=C([O-])CCl.O=C([O-])CCl.[Co+3].[O-][Cl+3]([O-])([O-])[O-] What is its recorded TGI?
Data returned: > 100 µM

Data request: Consider the molecule shown here: COc1cc(OC)cc(Oc2nc3ccccc3nc2C(F)(F)F)c1 What is its recorded TGI?
Data returned: > 100 µM

Data request: Consider the molecule shown here: O=C1c2ccccc2C(=O)c2c(NCC(O)CO)ccc(NCC(O)CO)c21 (centres undefined) What is its recorded TGI?
Data returned: > 100 µM

Data request: Consider the molecule shown here: O=C(CCN(C(=O)O)S(=O)(=O)c1ccc(NC(=O)c2ccccc2)cc1)Nc1ccccc1 What is its recorded TGI?
Data returned: > 75.2 µM

Data request: Consider the molecule shown here: CCCC(=O)OCC1OC(n2ccc(N)nc2=O)C(OC(=O)CCC)C1OC(=O)CCC (centres undefined) What is its recorded TGI?
Data returned: 25.1 µM

Data request: Consider the molecule shown here: CCCC(=O)NC(NC1CCCCC1)(C(=O)OCC)C(F)(F)F (centres undefined) What is its recorded TGI?
Data returned: > 100 µM

Data request: Consider the molecule shown here: N#CC1C(=S)NC(c2ccccc2)=CC12CCCCC2 (centres undefined) What is its recorded TGI?
Data returned: 52.1 µM

Data request: Consider the molecule shown here: O=C1c2cccc3c2C(=O)c2c(cccc21)OCCOCCOCCOCCO3 What is its recorded TGI?
Data returned: > 100 µM

Data request: Consider the molecule shown here: CC(C)(C)OC(=O)N(CCCCN(CCCNC(=O)C(F)(F)F)C(=O)OC(C)(C)C)CCCNC(=O)C(F)(F)F What is its recorded TGI?
Data returned: > 100 µM

Data request: Consider the molecule shown here: CCOC(=O)C(C#N)C1=CC(=O)C(=O)c2ccc(OC)cc21 (centres undefined) What is its recorded TGI?
Data returned: > 100 µM

Data request: Consider the molecule shown here: CCOC(=O)Nc1[nH]cc(-c2ccccc2)c1C#N What is its recorded TGI?
Data returned: > 100 µM

Data request: Consider the molecule shown here: CCOC(=O)c1ccc(NC(=O)Oc2ccc3c(C)cc(=O)oc3c2)cc1 What is its recorded TGI?
Data returned: 62.2 µM

Data request: Consider the molecule shown here: CCCCCCNc1n[nH]c(=O)c2c1nnn2Cc1ccccc1 What is its recorded TGI?
Data returned: > 100 µM

Data request: Consider the molecule shown here: CC1(C)S[C@@H]2[C@H](NC(=O)C3(N)CCCCC3)C(=O)N2[C@H]1C(=O)O What is its recorded TGI?
Data returned: > 100 µM

Data request: Consider the molecule shown here: CC1=C(C)CC2C(=O)N(c3cc(C(C)(C)C)ccc3C(C)(C)C)C(=O)C2C1 (centres undefined) What is its recorded TGI?
Data returned: > 100 µM

Data request: Consider the molecule shown here: COc1ccc(/C=C2\CCNC2=O)cc1 What is its recorded TGI?
Data returned: > 100 µM

Data request: Consider the molecule shown here: S=C(Nc1ccc(Cl)cc1)Nc1ccc(-c2nc3ccccc3s2)cc1 What is its recorded TGI?
Data returned: > 100 µM

Data request: Consider the molecule shown here: CC1=C(C(=O)Nc2ccc(F)c(Cl)c2)C(c2ccccc2O)NC(=S)N1 (centres undefined) What is its recorded TGI?
Data returned: > 50 µM

Data request: Consider the molecule shown here: COc1cccc(CCNC(=O)Cc2ccccc2CCO)c1 What is its recorded TGI?
Data returned: > 100 µM

Data request: Consider the molecule shown here: COc1cc(OC)c2nc(C)c(CCCl)c(Cl)c2c1 What is its recorded TGI?
Data returned: > 100 µM

Data request: Consider the molecule shown here: Nc1ccc([N+](=O)[O-])cc1N=C/C=C/c1ccccc1 What is its recorded TGI?
Data returned: > 100 µM

Data request: Consider the molecule shown here: CCOc1ncn(-c2ccc(NC(=S)Nc3ncccn3)cc2)n1 What is its recorded TGI?
Data returned: 65.2 µM

Data request: Consider the molecule shown here: O=C(Nc1ccc(Nc2ccncc2)cc1)c1ccc([N+](=O)[O-])cc1 What is its recorded TGI?
Data returned: > 24.6 µM

Data request: Consider the molecule shown here: O=C1C2SC34c5c2c2ccccc2n5CCC3CCCN14 (centres undefined) What is its recorded TGI?
Data returned: > 100 µM

Data request: Consider the molecule shown here: CC1(C)/C(=N\NC(N)=O)C2CCC1C2 (centres undefined) What is its recorded TGI?
Data returned: > 100 µM

Data request: Consider the molecule shown here: CO[C@@]12C[C@@H](C)C3=CCC(C)=C3CC1=C(C)C(=O)O2 What is its recorded TGI?
Data returned: > 100 µM

Data request: Consider the molecule shown here: O=c1oc2ccccc2cc1-c1cc2ccccn2c1 What is its recorded TGI?
Data returned: > 100 µM

Data request: Consider the molecule shown here: CC(C)C(CCl)NC(=O)c1cccc(C(=O)N[C@H](CCl)C(C)C)n1 (stereo in doubt) What is its recorded TGI?
Data returned: > 100 µM

Data request: Consider the molecule shown here: Fc1ccc2c(c1)nc1n2C(c2c(Cl)cccc2Cl)SC1 (centres undefined) What is its recorded TGI?
Data returned: 62.3 µM

Data request: Consider the molecule shown here: CC(=O)Nc1ccc(S(=O)(=O)N2C(=O)CCC2C(=O)Nc2ccc(Br)cc2)cc1 (centres undefined) What is its recorded TGI?
Data returned: 19 µM

Data request: Consider the molecule shown here: NC(N)=N/N=C/c1c(-c2ccsc2)nc2sccn12 What is its recorded TGI?
Data returned: 56.4 µM

Data request: Consider the molecule shown here: COc1cc(Nc2ncccc2C(=O)NCc2cn(Cc3cccc(Oc4ccccc4)c3)nn2)cc(OC)c1 What is its recorded TGI?
Data returned: > 100 µM

Data request: Consider the molecule shown here: O=C(Nc1ccn(CCO)c(=O)n1)c1ccccc1 What is its recorded TGI?
Data returned: > 100 µM

Data request: Consider the molecule shown here: COc1ccccc1/C=N\N/C(N)=N\N=C\c1ccccc1OC What is its recorded TGI?
Data returned: 0.558 µM

Data request: Consider the molecule shown here: NC(N)=NS(=O)(=O)c1ccc(NNc2c3ccccc3nc3c(C(=O)Nc4ccc(S(=O)(=O)Nc5ncccn5)cc4)cccc23)cc1 What is its recorded TGI?
Data returned: > 100 µM

Data request: Consider the molecule shown here: Cc1c(O)ccc2c(O)c(NC(=O)c3ccc4c(c3)CCC(C)(C)O4)c(=O)oc12 What is its recorded TGI?
Data returned: > 100 µM

Data request: Consider the molecule shown here: COC(=O)COc1ccccc1/C=C1\N=C(c2ccccc2)N(c2cc(C(F)(F)F)ccc2Cl)C1=O What is its recorded TGI?
Data returned: > 100 µM

Data request: Consider the molecule shown here: CN(C)c1ccc(/C=c2/c3ccccc3n3c2c2c([n+]3C)CCCC2)cc1 What is its recorded TGI?
Data returned: 0.363 µM

Data request: Consider the molecule shown here: CC(=O)OC(OC(C)=O)c1ccc2ccc3cccc4ccc1c2c34 What is its recorded TGI?
Data returned: > 100 µM

Data request: Consider the molecule shown here: CCN(CC)CCC(CNc1ccnc2cc(Cl)ccc12)c1ccc(Cl)cc1 (centres undefined) What is its recorded TGI?
Data returned: 3.94 µM

Data request: Consider the molecule shown here: CC1(C)COC(C2(C)C(=O)C=C(c3ccccc3)c3ccccc32)=N1 (centres undefined) What is its recorded TGI?
Data returned: 67.7 µM

Data request: Consider the molecule shown here: C/C=C/C(CC(O)(C(F)(F)F)C(F)(F)F)=N/NC(N)=S What is its recorded TGI?
Data returned: > 10 µM

Data request: Consider the molecule shown here: [N-]=[N+]=NC1(Cc2ccccc2)C(=O)c2cccc3c2N(CCC3)C1=O (centres undefined) What is its recorded TGI?
Data returned: > 100 µM

Data request: Consider the molecule shown here: COc1cc(OCc2cccc(-c3ccc(C(O)c4nccs4)cc3)c2C)cc(OC)c1C=O (centres undefined) What is its recorded TGI?
Data returned: 4.85 µM
